experimental_system: Gastrin/cholecystokinin type B receptor (Homo sapiens) (UniProt P32239)
Sequence (P32239 whole entry): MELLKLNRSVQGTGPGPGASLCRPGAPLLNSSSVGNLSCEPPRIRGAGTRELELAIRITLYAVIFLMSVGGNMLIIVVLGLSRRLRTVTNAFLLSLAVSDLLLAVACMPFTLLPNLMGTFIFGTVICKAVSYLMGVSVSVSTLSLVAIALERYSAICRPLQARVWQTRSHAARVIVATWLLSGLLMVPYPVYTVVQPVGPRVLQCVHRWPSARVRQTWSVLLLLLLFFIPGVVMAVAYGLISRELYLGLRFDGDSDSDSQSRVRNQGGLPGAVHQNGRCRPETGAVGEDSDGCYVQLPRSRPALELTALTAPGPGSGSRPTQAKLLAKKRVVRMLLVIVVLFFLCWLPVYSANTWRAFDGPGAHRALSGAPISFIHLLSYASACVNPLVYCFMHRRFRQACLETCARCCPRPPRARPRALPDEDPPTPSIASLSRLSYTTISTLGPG
test_summary: Agonist activity against human CCK2 receptor assessed as receptor activation at 10000 nM
Type: functional
readout_kind: Activity

Previously resolved entries follow.
• COc1cccc(-c2cc(C(=O)N3CCN(c4cccc(Cl)c4)CC3)nn2-c2ccc(C)cc2)c1 = 4.4%
• CCOc1cccc(-n2cc(C(=O)N3CCN(c4cnc5ccccc5c4)CC3)nc2-c2ccc(C)cc2)c1 = < 36%
• O=C(c1cn(-c2ccc3c(c2)OCCO3)c(-c2ccc(F)cc2)n1)N1CCN(c2cnc3ccccc3c2)CC1 = < 36%
• CCOc1cccc(-n2cc(C(=O)N3CCN(c4ccc5ccccc5c4)CC3)nc2-c2ccc(C)cc2)c1 = < 12%
• Cc1ccc(-c2nc(C(=O)N3CCN(c4ccc5ccccc5c4)CC3)cn2-c2ccc3c(c2)OCCO3)cc1 = < 21%

Looking for the measured Activity of `CCOc1cccc(-n2cc(C(=O)N3CCN(c4ccc5ccccc5c4)CC3)nc2-c2c(F)cccc2F)c1` , can you help? < 12%

Note, next up: `COc1cccc(-n2cc(C(=O)N3CCN(c4cc(C(=O)O)c5ccccc5c4)CC3)nc2-c2ccc(C)cc2)c1` < 20%

Queued: `Cc1ccc(-c2nc(C(=O)N3CCN(c4cnc5ccccc5c4)CC3)cn2-c2ccc3c(c2)OCCO3)cc1` < 36%

----------
Let's look at some molecules and their measured Activity.
experimental_system: Gastrin/cholecystokinin type B receptor (Homo sapiens) (UniProt P32239)
test_summary: Agonist activity against human CCK2 receptor assessed as receptor activation at 10000 nM
Type: functional

Below, 5 molecules whose answers are already recorded.
* Cc1ccc(-c2nc(C(=O)N3CCN(c4ccc5ccccc5c4)CC3)cn2-c2cccc3c2OCCO3)cc1 | < 21%
* Cc1ccc(-c2nc(C(=O)N3CCN(c4ccc5ccccc5c4)CC3)cn2-c2cccc(OC(C)C)c2)cc1 | < 21%
* COc1cccc(-n2cc(C(=O)N3CCN(c4ccc5ccccc5n4)CC3)nc2-c2ccc(C)cc2)c1 | < 20%
* CCOc1cccc(-n2cc(C(=O)N3CCN(c4ccc5ccccc5c4)CC3)nc2-c2ccc(F)cc2)c1 | < 12%
* CCOc1cccc(-n2cc(C(=O)N3CCN(c4ccc5ccccc5c4)CC3)nc2-c2cccc(F)c2)c1 | < 12%

Can you look up Activity on Gastrin/cholecystokinin type B receptor (Homo sapiens) (UniProt P32239) for `CCOc1cccc(-n2cc(C(=O)N3CCN(c4cnc5ccccc5c4)CC3)nc2-c2ccc(C)cc2F)c1` ? < 36%

Entry to check: `CCOc1cccc(-n2cc(C(=O)N3CCN(c4ccc5ccccc5c4)CC3)nc2-c2ccc(Cl)cc2)c1` < 12%

Another molecule to check: `Cc1ccc(-c2nc(C(=O)N3CCN(c4ccc5ccccc5c4)CC3)cn2-c2cccc(O)c2)cc1` < 21%

----------
test_summary: Oral bioavailability in mouse at 10 mg/kg
Format: ADME, organism-based
assay_conditions: in vivo
readout_kind: bioavailability (%)
Could you give me the number in %? Just the number is fine.

* CCOc1cccc(-n2cc(C(=O)N3CCN(c4cc(C(=O)[O-])c5ccccc5c4)CC3)nc2-c2ccc(C)cc2)c1.[Na+] | 43
* CCOc1cccc(-n2cc(C(=O)N3CCN(c4cc(C(=O)O)c5ccccc5c4)CC3)nc2-c2ccc(F)cc2)c1 | 33
* CCOc1cccc(-n2cc(C(=O)N3CCN(c4cc(C(=O)O)c5ccccc5c4)CC3)nc2-c2ccc(C)cc2F)c1 | 22

Kindly review the next molecule as well.
I have this molecule here, `CCOc1cccc(-n2cc(C(=O)N3CCN(c4cc(C(=O)O)c5ccccc5c4)CC3)nc2-c2ccc(C)cc2)c1` , and I need its recorded bioavailability. 7

Hello, the source for this data is ChEMBL document CHEMBL1155836, in case you need it.
